Where do these numbers come from? They come from patent US20190255141.

- experimental-system: human furin (human, UniProt P09958)
- Sequence (P09958 108-715): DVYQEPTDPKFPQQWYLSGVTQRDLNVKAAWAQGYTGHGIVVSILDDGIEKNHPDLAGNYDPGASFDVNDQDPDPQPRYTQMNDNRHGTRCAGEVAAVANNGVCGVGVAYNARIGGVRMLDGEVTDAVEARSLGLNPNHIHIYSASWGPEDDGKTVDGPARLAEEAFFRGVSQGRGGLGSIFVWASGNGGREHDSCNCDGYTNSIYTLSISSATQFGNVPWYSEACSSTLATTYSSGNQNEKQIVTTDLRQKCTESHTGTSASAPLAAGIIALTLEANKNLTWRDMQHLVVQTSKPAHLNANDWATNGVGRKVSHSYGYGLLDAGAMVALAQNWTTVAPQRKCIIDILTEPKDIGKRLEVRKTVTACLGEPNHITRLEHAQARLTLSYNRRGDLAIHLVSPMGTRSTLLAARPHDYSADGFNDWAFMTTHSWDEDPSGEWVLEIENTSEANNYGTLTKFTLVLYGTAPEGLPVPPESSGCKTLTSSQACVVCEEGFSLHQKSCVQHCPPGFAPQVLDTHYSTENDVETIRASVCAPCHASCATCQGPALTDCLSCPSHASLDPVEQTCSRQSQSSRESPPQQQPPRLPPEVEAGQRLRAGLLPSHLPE
- assay-comment: other, pH 7.0, 37C
pKi: −log10 of the molar value. Ends that are not written are not given here.
quantity-kind: pKi

P = KAAAK (not fully specified (N-terminus, C-terminus); printed as C16-KAAAK-C16) [C16-KAAAK-C16]
Q = Lys-Ala-Lys (not fully specified (N-terminus, C-terminus); printed as C16-KAK-C16) [C16-KAK-C16]
### Prompt Field: lower recorded pKi (choose P or Q ) Mark your selection by writing its label.
### Response P

A = KAAK (not fully specified (N-terminus, C-terminus); printed as C16-KAAK-C16) [C16-KAAK-C16]
B = KAAAAK (not fully specified) [C16-KAAAAK-C16]
### Prompt Returns: the argument ( A or B ) having the larger pKi. Mark your selection by writing its label.
### Response A
(A: 6.01, B: 5.76)
